Tested on: SF-539
Assay: Cytotoxicity against human SF539 cells
Format: functional
GI50 for assorted compounds
A number alone suffices; assume µM.

See these solved cases before continuing.
{"columns": ["Query smiles", "Target entity", "GI50 / µM"],
 "data": [
  ["CCc1ccc2c(c1)C(=O)c1c-2n(CCCBr)c(=O)c2cc([N+](=O)[O-])ccc12", "SF-539", 28.2],
  ["COc1cc2c3c(n(CCCN=[N+]=[N-])c(=O)c2cc1OC)-c1ccc(C#N)cc1C3=O", "SF-539", 17.4],
  ["COc1cc2c3c(n(CCCN=[N+]=[N-])c(=O)c2cc1OC)-c1ccc(NC(C)=O)cc1C3=O", "SF-539", 50.1],
  ["CSc1ccc2c(c1)C(=O)c1c-2n(CCCBr)c(=O)c2cc([N+](=O)[O-])ccc12", "SF-539", 4.57],
  ["Cc1ccc(S(=O)(=O)Oc2ccc3c(c2)C(=O)c2c-3n(CCCBr)c(=O)c3cc([N+](=O)[O-])ccc23)cc1", "SF-539", 50.1],
  ["NCCCn1c2c(c3ccc([N+](=O)[O-])cc3c1=O)C(=O)c1cc(-c3ccccc3)ccc1-2", "SF-539", 1.62]
]}

From here, focus on the item given below.
Q: Provide the documented GI50 with SF-539 as the system for COC(=O)c1ccc2c(c1)C(=O)c1c-2n(CCCN=[N+]=[N-])c(=O)c2cc([N+](=O)[O-])ccc12
Result: 53.7

Entry source: ChEMBL document CHEMBL1148751
